test: activity coefficient (dimensionless); of the first substance listed, at infinite dilution; xn = mol fraction of the nth substance listed; conditions: 298.15 K; 101 kPa; Liquid; Chromatography; x1 = 0
parameter: activity coefficient

> print(dat)
                                   compound  measuredvalue
1  CCCCC [pentane] + CCCCn1cc[n+](C)c1.COCCOCCOS(=O)(=O)[O-]           61.7
2  CO [methanol] + CCCCn1cc[n+](C)c1.COCCOCCOS(=O)(=O)[O-]          0.345

A. C#CCCCC [1-hexyne] + CCCCn1cc[n+](C)c1.COCCOCCOS(=O)(=O)[O-]
B. C1CCCC1 [cyclopentane] + CCCCn1cc[n+](C)c1.COCCOCCOS(=O)(=O)[O-]
For the pair A and B , which entry has the numerically smaller recorded activity coefficient? To answer, give the label that identifies your chosen option.
A

----------
experiment: activity coefficient (dimensionless); of the first substance listed, at infinite dilution; xn = mol fraction of the nth substance listed; conditions: 303.15 K; 101 kPa; Liquid; Chromatography; x1 = 0
parameter: activity coefficient

> print(dat)
                                   compound             parameter  measuredvalue
1  C1CCCCC1 [cyclohexane] + CCCCn1cc[n+](C)c1.COCCOCCOS(=O)(=O)[O-]  activity coefficient           31.5

A. CCCCCC [hexane] + CCCCn1cc[n+](C)c1.COCCOCCOS(=O)(=O)[O-]
B. C1CCCCCC1 [cycloheptane] + CCCCn1cc[n+](C)c1.COCCOCCOS(=O)(=O)[O-]
C. CCCCCCCC [octane] + CCCCn1cc[n+](C)c1.COCCOCCOS(=O)(=O)[O-]
D. C#CCCCCC [1-heptyne] + CCCCn1cc[n+](C)c1.COCCOCCOS(=O)(=O)[O-]
Order the records, beginning with the lowest activity coefficient and ending with the highest. Give the order by naming the labels one after another as requested.
D, B, A, C

A. C#CCCCC [1-hexyne] + CCCCn1cc[n+](C)c1.COCCOCCOS(=O)(=O)[O-]
B. C=CCCCC [hex-1-ene] + CCCCn1cc[n+](C)c1.COCCOCCOS(=O)(=O)[O-]
Look at A and B . Which one has the lower recorded activity coefficient number? In your reply, give the label of the chosen option.
A

----------
test: activity coefficient (dimensionless); of the first substance listed, at infinite dilution; xn = mol fraction of the nth substance listed; settings: 308.15 K; 101 kPa; Liquid; Chromatography; x1 = 0
parameter: activity coefficient

> print(dat)
                                   compound             parameter  measuredvalue
1  C=CCCCCCC [oct-1-ene] + CCCCn1cc[n+](C)c1.COCCOCCOS(=O)(=O)[O-]  activity coefficient           67.1
2  CCCCC [pentane] + CCCCn1cc[n+](C)c1.COCCOCCOS(=O)(=O)[O-]  activity coefficient           54.9
3  Cc1ccccc1 [toluene] + CCCCn1cc[n+](C)c1.COCCOCCOS(=O)(=O)[O-]  activity coefficient           3.66

I. CCCCCC [hexane] + CCCCn1cc[n+](C)c1.COCCOCCOS(=O)(=O)[O-]
II. C#CCCCCC [1-heptyne] + CCCCn1cc[n+](C)c1.COCCOCCOS(=O)(=O)[O-]
III. C#CCCCCCC [1-octyne] + CCCCn1cc[n+](C)c1.COCCOCCOS(=O)(=O)[O-]
IV. c1ccccc1 [benzene] + CCCCn1cc[n+](C)c1.COCCOCCOS(=O)(=O)[O-]
V. C1CCCCC1 [cyclohexane] + CCCCn1cc[n+](C)c1.COCCOCCOS(=O)(=O)[O-]
Order by activity coefficient, ascending. Response field: labels, in requested order.
IV, II, III, V, I
